Attribute: Scaled Vmax, in vivo
# Assay remarks: Microsomal conversion of myristicin, male rat liver microsomes
# Format: in vitro ADME
# Condition notes: from myristicin; microsomal protein yield 35 mg/g liver
The response must be a number in μmol/h/g tissue with no trailing unit.

{"columns": ["Compound", "Unit tag", "Scaled Vmax, in vivo"],
 "data": [
  ["COc1cc(CC(O)CO)cc2c1OCO2 (stereo not shown) [2′,3′-Dihydroxymyristicin]", "μmol/h/g tissue", 0.924],
  ["COc1cc(/C=C/CO)cc2c1OCO2 [3′-Hydroxymyristicin, 3′-hydroxymyristicin]", "μmol/h/g tissue", 0.987],
  ["C=CC(O)c1cc(OC)c2c(c1)OCO2 (stereo not shown) [1′-Hydroxymyristicin, 1′-hydroxymyristicin]", "μmol/h/g tissue", 1.806]
]}

Query C=CCc1cc(O)c(O)c(OC)c1 [5-Allyl-2,3-dihydroxyanisole, 5-allyl-2,3-dihydroxyanisole] yields Scaled Vmax, in vivo of 2.73
